molecular target: LAP2, Q96RT1; experiment: holdup assay; design: key: below the threshold = too weak to quantify, mostly under pKd 3.1 to 4; details: plain residues with an end cap or a label only (N-terminal biotin on a linker: ahx)
Sequence (Q96RT1 other isoform, or with tags, fused parts or gaps): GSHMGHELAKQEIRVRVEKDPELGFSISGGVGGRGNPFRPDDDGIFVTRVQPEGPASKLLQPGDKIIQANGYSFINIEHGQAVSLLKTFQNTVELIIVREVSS

# binder, pKd
records = [
    ("ADENEQVSAV [RAPGEF6, Q8TEU7]", "below the threshold"),
    ("HSATSVHTSV [MTMR1, Q13613]", "below the threshold"),
    ("AKPQPVDSWV [ARVCF, O00192]", 5.73),
    ("KEYDDELTFF [USH1C, Q9Y6N9]", "below the threshold"),
    ("PKMKLNETSF [SHKBP1, Q8TBC3]", "below the threshold"),
    ("SAPATLSSRA [PDLIM2, Q96JY6]", "below the threshold"),
    ("YNSFLSVTTV [PDZRN3, Q9UPQ7]", "below the threshold"),
    ("SKKNELFSNL [NHERF1, O14745]", "below the threshold"),
    ("KDECVIATEV [DLL1, O00548]", 3.59),
    ("VNENQKEYFF [CNTNAP4, Q9C0A0]", "below the threshold"),
]
